Molecular target: T1, A-beta(12-28) peptide (human)
T1 construct: Bachem peptide captured on streptavidin chip; also called monomeric A-beta(12-28); central region
T1 peptide: Biotin-VHHQKLVFFAEDVGSNK
Experiment: SPR on captured A-beta(12-28)
Ends that are not written are not given here. * marks the point of attachment. Biotin = O=C1N[C@H]2[C@H](CS[C@H]2CCCCC(=O)*)N1
readoutType: binding result

{"columns": ["binder", "readoutType", "observedResult"],
 "data": [
  ["ABII42E10 (VHH) VHH: EVQLVESGGGLVQPGGSLRLSCAASGLTFTLYTMGWFRQAPGKEREFVAAISASGGTTYYADSVKGRFALSRDNAKNTVFLQMNTLKPEDTAEYLCAAAFRGFAINTPTSYNYWGQGTQVTVSS", "binding result", "binds"],
  ["ABII35C7 (VHH) VHH: EVQLVESGGGLVQPGGSLRLSCAASGRTFSIYNMGWFRQAPGKEREFVAAISRSGSSTYYGDSVKGRFTISRDNAKKTVYLQMNSLKPEDTAVYHCAAARFGTPINTRGSYDYWGQGTQVTVSS", "binding result", "binds"],
  ["ABII1E11 (VHH) VHH: EVQLVESGGGLVQPGGSLRLSCAASGRTFSDYNMGWFHQAPGKEREIVAAISRSGRSTYYTVSVEGRFTISRDNAKNTVDLEMNSLKPEDTGIYYCAANSAGRAINLPLYKYWGQGTQVTVSS", "binding result", "binds"],
  ["ABII14D4 (VHH) VHH: EVQLVESGGGLVQAGGSLRLSCAASGRTFSTYNMAWFRHAPGKEREFVAAISRSGGSTYYVDSVKGRFTISRDNAKNTVYLQMNSLKPEDTAIYYCAAAPRGRSIVTTATYDYWGQGTQVTVSS", "binding result", "binds"]
]}
